Source: the supplement of paper PMC10266784

This listing pairs variants with measured SGCB cell-surface expression functional score (log10).
B1: library; numbered along this chain (parent)
chain: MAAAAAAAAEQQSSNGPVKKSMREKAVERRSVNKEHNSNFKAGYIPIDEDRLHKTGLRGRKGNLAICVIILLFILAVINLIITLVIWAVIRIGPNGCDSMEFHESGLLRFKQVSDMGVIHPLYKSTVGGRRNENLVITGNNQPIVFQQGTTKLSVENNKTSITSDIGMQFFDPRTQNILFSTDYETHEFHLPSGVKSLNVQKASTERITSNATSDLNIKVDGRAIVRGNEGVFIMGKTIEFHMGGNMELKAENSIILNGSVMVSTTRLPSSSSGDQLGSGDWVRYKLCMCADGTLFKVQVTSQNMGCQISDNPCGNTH

Variants of: B1
Test: SGCB cell-surface expression functional score (HA stain, bin4 vs bin1, normalised to synonymous) (log10 ratio); higher = more cell-surface SGCB (functional)
Recorded Metric: SGCB cell-surface expression functional score (log10)

Mutant Name | Endpoint Value
L191H | -1.37
S164E | -0.83
S264C | -0.1
F40K | 0.55
M235K | 0.78
K41S | 0.28
L71C | -0.37
G278N | 0.05
P17E | 0.21
T55P | 0.19
N140C | -0.04
